target: plasma purified human AT-III (antithrombin III), in complex with full-length unfractionated heparin (AT-III/UFH)
Measured attribute: K0.5-mut/K0.5-wt (against Catalyst Biosciences WT FIXa)
The reply should be a number, written without any unit.

GET /values?readout=K0.5-mut/K0.5-wt (against Catalyst Biosciences WT FIXa)&item= FIXa-Y259F/K265T/Y345T (protein) chain 1: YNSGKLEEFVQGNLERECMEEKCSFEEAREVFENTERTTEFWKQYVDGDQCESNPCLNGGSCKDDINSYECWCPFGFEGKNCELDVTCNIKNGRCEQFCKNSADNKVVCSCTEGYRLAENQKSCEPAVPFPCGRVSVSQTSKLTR chain 2: VVGGEDAKPGQFPWQVVLNGKVDAFCGGSIVNEKWIVTAAHCVETGVKITVVAGEHNIEETEHTEQKRNVIRIIPHHNFNAAINTYNHDIALLELDEPLVLNSYVTPICIADKEYTNIFLKFGSGYVSGWGRVFHKGRSALVLQYLRVPLVDRATCLRSTKFTITNNMFCAGFHEGGRDSCQGDSGGPHVTEVEGTSFLTGIISWGEECAMKGKYGIYTKVSRYVNWIKEKTKLT 0.3
